Measured values drawn from patent US12606528B2 for this set.

System: NF-κB
Assay: NF-κB assay: THP1-NF-κB-LUC cells, LPS-stimulated secreted luciferase
Assay type: cell-based
Conditions: THP1-NF-κB-LUC cells; compounds 2 hours before LPS (10 ng/mL) for 18 hours; secreted luciferase; read-out: IC50 (NF-κB assay)
Here, each record is paired with measured IC50 data.
Endpoint: IC50

[
  {
    "Compound": "CC(C)c1ccc(NS(=O)(=O)c2cc3c(cc2Cl)NC(=O)CO3)cc1 [BC19136]",
    "Endpoint": "IC50",
    "Value measured": "> 10000 nM"
  },
  {
    "Compound": "CCC1Oc2c(cc(Br)cc2S(=O)(=O)Nc2ccc(C)c(F)c2)N(C)C1=O (stereo not drawn) [BC19923]",
    "Endpoint": "IC50",
    "Value measured": "< 100 nM"
  },
  {
    "Compound": "CCC1Oc2cc(S(=O)(=O)Nc3ccc(F)c(F)c3)c(Cl)cc2NC1=O (stereo not drawn) [BC19735]",
    "Endpoint": "IC50",
    "Value measured": "< 100 nM"
  },
  {
    "Compound": "CCc1cccc(NS(=O)(=O)c2cc3c(cc2C)NC(=O)CO3)c1 [BC181347]",
    "Endpoint": "IC50",
    "Value measured": "1000 to 10000 nM"
  },
  {
    "Compound": "Cc1ccc(NS(=O)(=O)c2cc3c(cc2Br)N(C)C(=O)C(C)O3)cc1Cl (stereo not drawn) [BC19797]",
    "Endpoint": "IC50",
    "Value measured": "1000 to 10000 nM"
  },
  {
    "Compound": "CCC1Oc2c(cc(Br)cc2S(=O)(=O)NCc2ccc(OC(F)(F)F)cc2)NC1=O (stereo not drawn) [BC19375]",
    "Endpoint": "IC50",
    "Value measured": "< 100 nM"
  },
  {
    "Compound": "Cc1ccc(NS(=O)(=O)c2cc(S(C)(=O)=O)cc3c2OCC(=O)N3)cc1Cl [BC19486]",
    "Endpoint": "IC50",
    "Value measured": "< 100 nM"
  },
  {
    "Compound": "CC1Oc2c(cc(Br)cc2S(=O)(=O)Nc2cccc(F)c2)N(C)C1=O (stereo not drawn) [BC19902]",
    "Endpoint": "IC50",
    "Value measured": "< 100 nM"
  },
  {
    "Compound": "O=S(=O)(c1ccc(Br)cc1)c1cnccc1O [BC 19460]",
    "Endpoint": "IC50",
    "Value measured": "> 10000 nM"
  }
]

====

System: NF-κB
Experiment: NF-κB assay: THP1-NF-κB-LUC cells, LPS-stimulated secreted luciferase
Assay type: cell-based
Details: THP1-NF-κB-LUC cells; compounds 2 hours before LPS (10 ng/mL) for 18 hours; secreted luciferase; read-out: IC50 (NF-κB assay)
pIC50: −log10 of the molar value.

[
  {
    "Compound": "Cc1ccc(NS(=O)(=O)c2cc(S(C)(=O)=O)cc3c2OCC(=O)N3)cc1F",
    "pIC50": "> 7.00"
  },
  {
    "Compound": "CCc1ccc(NS(=O)(=O)c2cc3c(cc2C)NC(=O)CO3)cc1",
    "pIC50": "> 7.00"
  },
  {
    "Compound": "CCC1Oc2cc(S(=O)(=O)NC3CCC(O)CC3)c(Br)cc2NC1=O (stereo not shown)",
    "pIC50": "< 5.00"
  },
  {
    "Compound": "CC1Oc2cc(S(=O)(=O)Nc3ccc(F)cc3F)c(Cl)cc2NC1=O (stereo not shown)",
    "pIC50": "> 7.00"
  },
  {
    "Compound": "CCc1cccc(NS(=O)(=O)c2cc3c(cc2Br)N(C)C(=O)C(C)O3)c1 (stereo not shown)",
    "pIC50": "5.00 to 6.00"
  },
  {
    "Compound": "CC1Oc2cc(S(=O)(=O)NCc3ccc(C(F)(F)F)cc3)c(Br)cc2NC1=O (stereo not shown)",
    "pIC50": "< 5.00"
  },
  {
    "Compound": "CS(=O)(=O)c1cc2c(c(S(=O)(=O)Nc3ccccc3)c1)OCC(=O)N2",
    "pIC50": "6.00 to 7.00"
  },
  {
    "Compound": "CCC1Oc2cc(S(=O)(=O)Nc3ccc(C)c(Cl)c3)c(Br)cc2N(C)C1=O (stereo not shown)",
    "pIC50": "6.00 to 7.00"
  },
  {
    "Compound": "CC1Oc2cc(S(=O)(=O)Nc3ccc(F)c(F)c3)c(Br)cc2NC1=O (stereo not shown)",
    "pIC50": "> 7.00"
  },
  {
    "Compound": "CCN(c1ccc(OC)cc1)S(=O)(=O)c1cc2c(cc1C)NC(=O)CO2",
    "pIC50": "< 5.00"
  },
  {
    "Compound": "N#Cc1ccc2[nH]cc(S(=O)(=O)c3cc(Cl)cc(Cl)c3)c(=O)c2c1",
    "pIC50": "6.00 to 7.00"
  },
  {
    "Compound": "CCc1ccc(S(=O)(=O)c2c[nH]c3cc(F)c(F)cc3c2=O)cc1",
    "pIC50": "> 7.00"
  },
  {
    "Compound": "Cc1cc2c(cc1S(=O)(=O)Nc1ccc(C(C)C)cc1)OCC(=O)N2",
    "pIC50": "> 7.00"
  },
  {
    "Compound": "CCC1Oc2cc(S(=O)(=O)Nc3cccc(Cl)c3)c(Cl)cc2NC1=O (stereo not shown)",
    "pIC50": "6.00 to 7.00"
  },
  {
    "Compound": "Cc1cc2c(cc1S(=O)(=O)Nc1ccc(F)cc1Cl)OCC(=O)N2",
    "pIC50": "6.00 to 7.00"
  },
  {
    "Compound": "O=c1c(S(=O)(=O)c2ccc(F)cc2)c[nH]c2ccc(Cl)cc12",
    "pIC50": "< 5.00"
  },
  {
    "Compound": "CC1Oc2cc(S(=O)(=O)Nc3ccc(F)cc3F)c(Br)cc2N(C)C1=O (stereo not shown)",
    "pIC50": "6.00 to 7.00"
  },
  {
    "Compound": "CC1Oc2cc(S(=O)(=O)Nc3ccc(F)cc3Cl)c(Br)cc2NC1=O (stereo not shown)",
    "pIC50": "5.00 to 6.00"
  },
  {
    "Compound": "CCC1Oc2c(cc(Cl)cc2S(=O)(=O)Nc2ccc(C)c(Cl)c2)NC1=O (stereo not shown)",
    "pIC50": "> 7.00"
  },
  {
    "Compound": "CCC1Oc2cc(S(=O)(=O)Nc3ccc(F)c(F)c3)c(Br)cc2N(C)C1=O (stereo not shown)",
    "pIC50": "> 7.00"
  },
  {
    "Compound": "COc1ccc(S(=O)(=O)c2c[nH]c3cc(F)ccc3c2=O)cc1",
    "pIC50": "5.00 to 6.00"
  },
  {
    "Compound": "CCS(=O)(=O)c1cc2c(c(S(=O)(=O)Nc3ccc(Cl)cc3)c1)OCC(=O)N2",
    "pIC50": "> 7.00"
  },
  {
    "Compound": "Cc1ccc(S(=O)(=O)c2cc3cc(Cl)ccc3oc2=O)cc1Cl",
    "pIC50": "< 5.00"
  },
  {
    "Compound": "Cc1ccc(NS(=O)(=O)c2cc3c(cc2C)NC(=O)CO3)cc1C",
    "pIC50": "5.00 to 6.00"
  },
  {
    "Compound": "CCS(=O)(=O)c1cc2c(c(S(=O)(=O)Nc3ccc(C#N)cc3)c1)OCC(=O)N2",
    "pIC50": "> 7.00"
  },
  {
    "Compound": "CCC1Oc2cc(S(=O)(=O)Nc3ccc(OC(F)(F)F)cc3)c(Cl)cc2NC1=O (stereo not shown)",
    "pIC50": "> 7.00"
  },
  {
    "Compound": "O=c1[nH]ccc2cc(S(=O)(=O)c3ccccc3)ccc12",
    "pIC50": "< 5.00"
  },
  {
    "Compound": "Cc1ccc(NS(=O)(=O)c2cc(S(C)(=O)=O)cc3c2OCC(=O)N3)cc1",
    "pIC50": "> 7.00"
  },
  {
    "Compound": "COc1ccc2[nH]cc(S(=O)(=O)c3cc(Cl)cc(Cl)c3)c(=O)c2c1",
    "pIC50": "< 5.00"
  },
  {
    "Compound": "CC(C)CC1Oc2c(cc(Br)cc2S(=O)(=O)Nc2cccc(F)c2)NC1=O (stereo not shown)",
    "pIC50": "> 7.00"
  },
  {
    "Compound": "COc1ccc(NS(=O)(=O)c2cc3c(cc2C)NC(=O)CO3)cc1OC",
    "pIC50": "< 5.00"
  },
  {
    "Compound": "COc1ccc(NS(=O)(=O)c2cc(Cl)cc3c2OC(C)C(=O)N3)cc1 (stereo not shown)",
    "pIC50": "> 7.00"
  },
  {
    "Compound": "Cc1ccc(NS(=O)(=O)c2cc3c(cc2Cl)NC(=O)CO3)cc1F",
    "pIC50": "> 7.00"
  },
  {
    "Compound": "COc1cccc(NS(=O)(=O)c2cc3c(cc2C)N(C)CCO3)c1",
    "pIC50": "< 5.00"
  },
  {
    "Compound": "CC1Oc2c(cc(Br)cc2S(=O)(=O)Nc2ccc(F)cc2Cl)N(C)C1=O (stereo not shown)",
    "pIC50": "> 7.00"
  },
  {
    "Compound": "Cc1ccc(NS(=O)(=O)c2c(C)c(Cl)cc3c2OCC(=O)N3)cc1Cl",
    "pIC50": "> 7.00"
  },
  {
    "Compound": "CC1Oc2cc(S(=O)(=O)Nc3ccc(F)cc3Cl)c(Br)cc2N(C)C1=O (stereo not shown)",
    "pIC50": "< 5.00"
  }
]
